# System: SB.mhdgc-1
# ASSAY INFO: area under the dose-response curve of % viability (trapezoidal, 11 doses) (% viability x log10 concentration); higher = less cytotoxic
# ASSAY CONDITIONS: SB.mhdgc-1 (hereditary c.1380delA CDH1 gastric cancer)
Response key: criterion met means area under the dose-response curve >= 500; criterion not met means area under the dose-response curve < 500.

Use the examples below as a reference point.
[[record]]
compound = "CCC(C1CCC(C)C(O1)C(C)C(O)C(C)C(=O)C(CC)C2OC\\3(O[C@]4(CC[C@@](C)(O4)C5CC[C@@](O)(CC)C(C)O5)C(O)\\C=C3)C(C)CC2C)C([O-])=O (stereo not given in full) [Salinomycin] (top concentration 46.0829 µM)"
target = "SB.mhdgc-1"
group_label = "criterion not met"

[[record]]
compound = "CC(C)C[C@H](CN)CC(=O)O [Pregabalin] (top concentration 46.0829 µM)"
target = "SB.mhdgc-1"
group_label = "criterion met"

[[record]]
compound = "CO[C@H]1C[C@@H]2CC[C@@H](C)[C@@](O)(O2)C(=O)C(=O)N2CCCC[C@H]2C(=O)O[C@H]([C@H](C)C[C@@H]2CC[C@@H](OCCO)[C@H](OC)C2)CC(=O)[C@H](C)/C=C(/C)[C@@H](O)[C@@H](OC)C(=O)[C@H](C)C[C@H](C)\\C=C/C=C\\C=C/1C [Everolimus] (top concentration 46.0829 µM)"
target = "SB.mhdgc-1"
group_label = "criterion not met"

[[record]]
compound = "CCCCCCCCCCCCCCCCCCOP(=O)([O-])OC1CC[N+](C)(C)CC1 [Perifosine] (top concentration 23.0415 µM)"
target = "SB.mhdgc-1"
group_label = "criterion met"


Query compound follows.
Check this compound for area under the dose-response curve at or above 500: C[C@@H](NCCCc1cccc(C(F)(F)F)c1)c1cccc2ccccc12 [Cinacalcet] (top concentration 46.0829 µM)
criterion met

* * *

# Tested on: SB.msgc-1
# ASSAY INFO: area under the dose-response curve of % viability (trapezoidal, 11 doses) (% viability x log10 concentration); higher = less cytotoxic
# ASSAY CONDITIONS: SB.msgc-1 (sporadic gastric cancer)
Cut-off 400 on area under the dose-response curve, inclusive. At or above means condition met; below means condition not met.

The following compounds have reported results that may help.
[[record]]
compound = "Nc1ccc([S+](=O)([O-])Nc2ccnn2-c2ccccc2)cc1 [Sulfaphenazole] (top concentration 46.0829 µM)"
group_label = "condition met"

[[record]]
compound = "CO[C@@H]1C(N(C)C(=O)c2ccccc2)C[C@H]2O[C@]1(C)n1c3ccccc3c3c4c(c5c6ccccc6n2c5c31)C(=O)NC4=O (stereo partly specified) [Stauprimide] (top concentration 46.0829 µM)"
group_label = "condition not met"

[[record]]
compound = "C#C[C@]1(O)CC[C@H]2[C@@H]3CCc4cc(O)ccc4[C@H]3CC[C@@]21C [Ethinylestradiol] (top concentration 46.0829 µM)"
group_label = "condition not met"


For this compound, is measured area under the dose-response curve 400 or higher? COC(=O)C/1=C/O[C@@H](O)[C@H]\2[C@@H]1C\C=C2CO [Genipin] (top concentration 46.0829 µM)
condition met

Item: F\C1=C\NC(=O)NC1=O [Fluorouracil] (top concentration 46.0829 µM)
condition met

Same again, this time with C=CCNc1c(O)cc2c(O)c1C[C@@H](C)C[C@H](OC)[C@H](O)[C@@H](C)/C=C(/C)[C@H](OC(N)=O)[C@@H](OC)/C=C\C=C(\C)C(=O)N2 [Retaspimycin] (top concentration 46.0829 µM)
condition not met

Same again, this time with O=c1cc(-c2ccc(O)c(O)c2)oc2cc(O)cc(O)c12 [Luteolin] (top concentration 46.0829 µM)
condition met

Entry to check: COc1cc2nccc(Oc3ccc(NC(=O)C4(C(=O)Nc5ccc(F)cc5)CC4)cc3)c2cc1OC [Cabozantinib] (top concentration 46.0829 µM)
condition met

Again, but for C[C@H](CCC(=O)O)[C@H]1CCC2C3C[C@H](O)[C@@H]4C[C@H](O)CC[C@]4(C)C3CC[C@@]21C (stereo partly specified) [Hyodeoxycholic acid (HDCA)] (top concentration 46.0829 µM)
condition met

# repeat for CNCC(O)C(O)C(O)C(O)CO.O=C(O)c1ccc(-c2cc3cccnc3c(-c3ccc4nonc4c3)n2)cc1 [NVP-ABE171] (top concentration 46.0829 µM)
condition met

The values you see were collected from the supplement of paper PMC5412046.
